Field: IC50. Provide a value for each of the compounds that follow.
# number only, unit µM dropped from output

Q: # query: IC50 | item Cc1noc2cc(-c3c(-c4ccc(C#N)c(F)c4)nc(N4C5CCC4CC(N)C5)n4ccnc34)c(F)cc12 (stereo not drawn) | system: voltage-gated potassium ion channel hERG (Homo sapiens (Human), UniProt Q12809)
Result: 13.2

Q: # query: IC50 | item N#CCn1ncc2cc(F)c(-c3sc(C(=O)N4C5CCC4CC(N)C5)cc3-c3ccc(C#N)c(F)c3)cc21 (stereo not drawn) | system: voltage-gated potassium ion channel hERG (Homo sapiens (Human), UniProt Q12809)
Result: 11.4

Q: # query: IC50 | item COc1ccc(-c2c(-c3ccc(C#N)c(F)c3)nc(N3C4CCC3CC(N)C4)n3ccnc23)cc1F (stereo not drawn) | system: voltage-gated potassium ion channel hERG (Homo sapiens (Human), UniProt Q12809)
Result: 7.83

###

Field: pIC50. Provide a value for each of the compounds that follow.
# target or system: UniProtKB Q12809
# assay procedure: hERG inhibition test (manual patch-clamp)
# condition description: read-out: hERG IC50; manual patch-clamp
Counter-ions that a name gives are not always drawn.
# reply with the number alone; pIC50 is -log10 of concentration in mol/L

Q: Given the compound `O=C(c1cc(CN[C@@H]2C[C@H]2c2ccc(F)cc2)nc(-c2ccc(-n3cccn3)cc2)n1)N1CCC(F)(F)CC1` , what is its reported pIC50?
Result: 5.30

Q: Given the compound COc1cc(N2CCC(N)CC2)nc(-c2ccc(C#N)c(F)c2)c1-c1ccc(C)c(O)c1 [Example 95, hydrochloride] , what is its reported pIC50?
Result: 5.16

Q: Given the compound `COc1ccc(-c2c(-c3ccc(C#N)c(F)c3)nc(N3CCC(N)CC3)n3ccnc23)cc1C#N` , what is its reported pIC50?
Result: 4.63

Q: Given the compound COc1ccc(-c2cnc(N3CCC(C)(N)CC3)c(C#N)c2-c2ccc(C#N)c(F)c2)cc1O [Example 80, hydrochloride] , what is its reported pIC50?
Result: 5.03

Q: Given the compound `COc1cc(N2CCC(N)CC2)nc(-c2ccc(C#N)c(F)c2)c1-c1cc2onc(C)c2cc1F` , what is its reported pIC50?
Result: 5.34

Q: Given the compound `CS(=O)(=O)N1CCN(C(=O)c2cc(CN[C@@H]3C[C@H]3c3ccc(F)cc3)nc(-c3ccc(-n4ccnn4)cc3)n2)CC1` , what is its reported pIC50?
Result: 5.14

Q: Given the compound `COc1cc(N2CCC(N)CC2)nc(-c2ccc(C#N)c(F)c2)c1-c1cc(O)c(F)c(F)c1` , what is its reported pIC50?
Result: 4.96

Q: Given the compound N#Cc1ccc(-c2nc(N3CCC(N)CC3)n3ccnc3c2-c2ccc(OC(F)(F)F)c(O)c2)cc1F [Example 133, hydrochloride] , what is its reported pIC50?
Result: 5.14

Q: Given the compound `CC(C)(O)Cc1ccc(-c2c(-c3ccc(C#N)c(F)c3)nc(N3CCC(N)CC3)n3ccnc23)cc1F` , what is its reported pIC50?
Result: 4.74

Q: Given the compound `COc1ccc(-c2c(-c3ccc(C#N)c(F)c3)nc(N3CCC(N)CC3)n3ccnc23)cn1` , what is its reported pIC50?
Result: 5.22

Q: Given the compound `Cc1noc2cc(-c3c(-c4ccc(C#N)c(F)c4)nc(N4CCC(N)CC4)n4ccnc34)c(F)cc12` , what is its reported pIC50?
Result: 5.02

Q: Given the compound CNC1CCN(c2ncc(-c3ccc(OC)c(O)c3)c(-c3ccc(C#N)c(F)c3)c2C#N)CC1 [Example 79, hydrochloride] , what is its reported pIC50?
Result: 5.36

###

# target or system: LSD1 (Homo sapiens (Human))
# assay procedure: LSD1 enzyme activity detection (HTRF)
# Assay type: biochemical
# condition description: HTRF, H3K4me1 substrate; read-out: Inhibition of enzymatic activity of LSD1 IC50
Where a name gives a salt, the structure may show the parent alone.
value type: pIC50
# reply with the number alone; pIC50 is -log10 of concentration in mol/L

Q: # query: pIC50 | item COc1ccc(C#Cc2c(-c3ccc(C#N)c(F)c3)nc(N3CCC(N)CC3)n3ccnc23)cc1F [Example 122, hydrochloride] | system: LSD1 (Homo sapiens (Human))
Result: 8.06

Q: # query: pIC50 | item COc1ccc(-c2cnc(N3CCC(N)CC3)c(C#N)c2-c2ccc(C#N)c(F)c2)cc1F [Example 68, hydrochloride] | system: LSD1 (Homo sapiens (Human))
Result: 8.47

Q: # query: pIC50 | item Cc1noc2cc(-c3sc(C(=O)N4C5CCC4CC(N)C5)cc3-c3cncnc3)c(F)cc12 (stereo not shown) [Example 206, hydrochloride] | system: LSD1 (Homo sapiens (Human))
Result: 6.36

Q: # query: pIC50 | item Cc1noc2cc(-c3sc(C(=O)N4C5CCC4CC(N)C5)cc3-c3ncccn3)c(F)cc12 (stereo not shown) | system: LSD1 (Homo sapiens (Human))
Result: 6.69

###

# assay procedure: in vitro
# condition description: human, Caco-2
Where a name gives a salt, the structure may show the parent alone.
value type: Papp A→B at 120 min (×10⁻⁶ cm/s)
# number only, unit ×10⁻⁶ cm/s dropped from output

Q: Given the compound Cc1noc2cc(-c3sc(C(=O)N4C5CCC4CC(N)C5)nc3-c3ccc(C#N)c(F)c3)c(F)cc12 (centres unmarked) [Example 220, hydrochloride] , what is its reported Papp A→B at 120 min?
Result: 2.3

Q: Given the compound COc1ccc(-c2c(-c3ccc(C#N)c(F)c3)nc(N3C4CCC3CC(N)C4)n3ccnc23)cc1F (centres unmarked) , what is its reported Papp A→B at 120 min?
Result: 2.88

###

Field: log10 IC50. Provide a value for each of the compounds that follow.
# target or system: UniProt:O60341
# assay procedure: LSD1 enzyme activity detection (HTRF)
# Type: biochemical
# condition description: HTRF, H3K4me1 substrate; read-out: Inhibition of enzymatic activity of LSD1 IC50
Structures can show the parent of a compound that is named as a salt.
For clarity, the numbers are log10 values of IC50 expressed in nM.

Q: Given the compound COc1ccc(-c2c(-c3ccc(C#N)cc3)nc(N3C4CCC3CC(N)C4)n3ccnc23)cc1F (stereo not shown) [Example 178, hydrochloride] , what is its reported log10 IC50?
Result: 0.58

Q: Given the compound N#Cc1ccc(-c2nc(N3CCC(N)CC3)cc(O)c2-c2ccc(OC(F)(F)F)c(O)c2)cc1F [Example 29, hydrochloride] , what is its reported log10 IC50?
Result: 0.53

Q: Given the compound `COc1ccc(-c2c(O)cc(N(C)CCCN)nc2-c2ccc(C#N)c(F)c2)cc1O` , what is its reported log10 IC50?
Result: 1.32

Q: Given the compound `Cc1nc(N2CCC(N)CC2)c(C#N)c(-c2ccc(C#N)c(F)c2)c1-c1cc2onc(C)c2cc1F` , what is its reported log10 IC50?
Result: -0.41

Q: Given the compound COc1ccc(-c2c(-c3ccc(C#N)c(F)c3)nc(N3CCC[C@@H](N)C3)n3ccnc23)cc1O [Example 139, hydrochloride] , what is its reported log10 IC50?
Result: -0.16

Q: Given the compound N#Cc1ccc(-c2c(-c3ccc(C(F)(F)F)c(O)c3)cnc(N3CCC(N)CC3)c2C#N)cc1F [Example 70, hydrochloride] , what is its reported log10 IC50?
Result: -0.30

Q: Given the compound `Cc1noc2cc(-c3c(C#N)cc(N4CCC(N)CC4)nc3-c3ccc(C#N)c(F)c3)c(F)cc12` , what is its reported log10 IC50?
Result: -0.03

Q: Given the compound `O=C(c1cc(CN[C@@H]2C[C@H]2c2ccc(F)cc2)nc(-c2ccc(-n3ccnn3)cc2)n1)N1CCOCC1` , what is its reported log10 IC50?
Result: 1.70

Q: Given the compound `Cc1ccc(-c2c(-c3ccc(C#N)cc3)cc3c(N4CCC[C@@H](N)C4)nncn23)cc1` , what is its reported log10 IC50?
Result: 0.36

Q: Given the compound N#Cc1ccc(-c2nc(N3CCC(N)CC3)cc(O)c2-c2ccc3oc(=O)[nH]c3c2)cc1F [Example 19, hydrochloride] , what is its reported log10 IC50?
Result: 0.78

Q: Given the compound `Cc1ccc(-c2c(-c3ccc(C#N)c(F)c3)nc(N3CCC(C)(N)CC3)n3ccnc23)cc1O` , what is its reported log10 IC50?
Result: 0.00

Q: Given the compound `COc1ccc(-c2c(-c3ccc(C#N)c(F)c3)nc(N3CCC(N)CC3)c3ncoc23)cc1O` , what is its reported log10 IC50?
Result: -0.52

Q: Given the compound O=C(NC1CCOCC1)c1cc(CN[C@@H]2C[C@H]2c2ccc(F)cc2)nc(-c2ccc(N3CCOCC3)cc2)n1 [Example 246, hydrochloride] , what is its reported log10 IC50?
Result: 1.26

Q: Given the compound COc1ccc(-c2c(-c3ccc(C#N)c(O)c3)nc(N3C4CCC3CC(N)C4)n3ccnc23)cc1F (stereo not shown) , what is its reported log10 IC50?
Result: 1.15

Q: Given the compound CNC1CCCN(c2nc(-c3ccc(C#N)c(F)c3)c(-c3ccc(OC)c(F)c3)c3nccn23)C1 (stereo not shown) , what is its reported log10 IC50?
Result: 0.98

Q: Given the compound COc1ccc(-c2c(O)cc(N3CCC(NCC(C)(C)O)CC3)nc2-c2ccc(C#N)c(F)c2)cc1F [Example 45, hydrochloride] , what is its reported log10 IC50?
Result: 2.26

Q: Given the compound COc1ccc(-c2c(C(N)=O)nc(N3CCC(N)CC3)nc2-c2ccc(C#N)c(F)c2)cc1F [Example 110, hydrochloride] , what is its reported log10 IC50?
Result: 0.51

Q: Given the compound N#Cc1ccc(-c2nc(CCCN[C@@H]3C[C@H]3c3ccc(F)cc3)cc(C(=O)N3CCC(F)(F)CC3)n2)cc1 [Example 258, hydrochloride] , what is its reported log10 IC50?
Result: 2.37

Q: Given the compound `Cc1noc2cc(-c3c(-c4ccc(C#N)c(F)c4)nc(N4CCC(N)CC4)c4nc[nH]c34)c(F)cc12` , what is its reported log10 IC50?
Result: 0.26

Q: Given the compound `N#Cc1ccc(-c2nc(N3CCC(N)CC3)cc(O)c2-c2ccc(F)c(O)c2)cc1F` , what is its reported log10 IC50?
Result: 0.11

Q: Given the compound `COc1ccc(-c2sc(N3CCC(N)CC3)nc2-c2ccc(C#N)c(F)c2)cc1O` , what is its reported log10 IC50?
Result: -1.00

Q: Given the compound Cc1ccc(-c2sc(C(=O)N3C4CCC3CC(N)C4)cc2-c2ccc(C#N)c(F)c2)c(F)c1 (stereo not shown) [Example 6, hydrochloride] , what is its reported log10 IC50?
Result: -0.52

Q: Given the compound COc1ccc(-c2c(OCC3COC3)cc(N3CCC(N)CC3)nc2-c2ccc(C#N)c(F)c2)cc1O [Example 109, hydrochloride] , what is its reported log10 IC50?
Result: 0.60

Q: Given the compound `Cc1ccc(-c2nc(CN[C@@H]3C[C@H]3c3ccc(F)cc3)cc(C(=O)NC3CCOCC3)n2)cc1O` , what is its reported log10 IC50?
Result: 1.34

Q: Given the compound N#Cc1ccc(-c2nc(N3C4CCC3CC(N)C4)n3ccnc3c2-c2cc3[nH]ncc3cc2F)cc1F (stereo not shown) [Example 173, hydrochloride] , what is its reported log10 IC50?
Result: -0.10

Q: Given the compound CC(C)(O)Cn1ncc2cc(F)c(-c3c(-c4ccc(C#N)c(F)c4)nc(N4CCC(N)CC4)n4ccnc34)cc21 [Example 127, hydrochloride] , what is its reported log10 IC50?
Result: 1.54

Q: Given the compound COc1cc(N2CCC(N)CC2)nc(-c2ccc(C#N)c(F)c2)c1-c1ccc(C(F)(F)F)c(O)c1 [Example 99, hydrochloride] , what is its reported log10 IC50?
Result: 0.69

Q: Given the compound COc1ccc(-c2c(-c3ccc(C#N)c(F)c3)nc(N3C4CCC3CC(N)C4)n3ccnc23)cc1F (stereo not shown) , what is its reported log10 IC50?
Result: -0.11

All figures here come from patent US20240216357A1.
